Assay: Selectivity index, ratio of CC50 for cytotoxicity against human MRC5 cells to EC50 for Trypanosoma cruzi Tulahuen CL2 amastigotes expressing beta galactosidase infected in human MRC5 cells
Assay type: toxicity, cell-based
Conditions: read-out: Selectivity Index
selectivity ratio values by entry

Consider the following illustrative entries.
structure.notation	recorded.metric	val
Cc1nnn(CC(=O)Nc2nc3ccc(C#N)cc3n2CC(F)(F)F)n1	selectivity ratio	> 6
N#Cc1ccc2nc(NC(=O)c3ccccn3)n(CC(F)(F)F)c2c1	selectivity ratio	> 7

Okay, now this compound:
Q: selectivity ratio for "Cn1nncc1C(=O)Nc1nc2ccc(C#N)cc2n1CC(F)(F)F" ?
Result: > 3

* * *

Test: Selectivity index, ratio of CC50 for cytotoxicity against human MRC5 cells to EC50 for Trypanosoma cruzi Tulahuen CL2 amastigotes expressing beta galactosidase infected in human MRC5 cells
Type: toxicity, cell-based
Conditions: read-out: Selectivity Index
selectivity ratio values by entry

Consider the following illustrative entries.
structure.notation	selectivity ratio
N#Cc1ccc2nc(NC(=O)c3ccnc(C(F)(F)F)c3)n(CC(F)(F)F)c2c1	> 231
CCCn1c(NC(=O)c2cccnc2)nc2ccc(C#N)cc21	> 4
CCCn1c(NC(=O)c2ccccn2)nc2cccnc21	> 8
CCCn1c(NC(=O)Cc2ccc(F)cc2)nc2cc(F)c(F)cc21	> 121
CCCn1c(NC(=O)Cc2ccc(F)cc2)nc2ccc(C(=O)N3CCOCC3)cc21	> 2

Okay, now this compound:
Q: selectivity ratio for "CCCn1c(NC(=O)c2cccnc2)nc2cc(F)ccc21" ?
Result: > 8
